# target.or.test.system: Ba/F3 cells, ABL1 WT (Homo sapiens, UniProt P00519)
# experimental.protocol: 96-well XTT cell survival assay, Ba/F3 ABL1 WT
# Type: cell-based
# applied.conditions: 72 hours, read-out: ABL1 WT XTT [Ba/F3] IC50
As shown below, each of these compounds has a reported GI50 value.

compound: COc1ccccc1-c1c[nH]c2ncc(-c3cccc(C(N)CC(=O)N4CCC[C@@H]4CO)c3)cc12 (stereo partly drawn)
target.or.test.system: Ba/F3 cells, ABL1 WT (Homo sapiens, UniProt P00519)
assay.readout: GI50
assay.value: > 1000 nM

compound: COc1ccccc1-c1n[nH]c2ncc(-c3cccc(C(C(=O)N4CCC(N(C)C)C4)N(C)C)c3)cc12 (stereo not drawn)
target.or.test.system: Ba/F3 cells, ABL1 WT (Homo sapiens, UniProt P00519)
assay.readout: GI50
assay.value: > 1000 nM

compound: COc1ccccc1-c1n[nH]c2ncc(-c3cccc(C(C)(O)C(=O)N(C)C)c3)cc12 (stereo not drawn)
target.or.test.system: Ba/F3 cells, ABL1 WT (Homo sapiens, UniProt P00519)
assay.readout: GI50
assay.value: > 1000 nM

compound: CN(C)C(=O)C(O)c1cncc(-c2cnc3[nH]cc(-c4cccc(F)c4F)c3c2)c1 (stereo not drawn)
target.or.test.system: Ba/F3 cells, ABL1 WT (Homo sapiens, UniProt P00519)
assay.readout: GI50
assay.value: < 1000 nM

compound: CN(C)C(=O)C(O)c1cncc(-c2cnc3[nH]cc(-c4ccc5c(c4)OCO5)c3c2)c1 (stereo not drawn)
target.or.test.system: Ba/F3 cells, ABL1 WT (Homo sapiens, UniProt P00519)
assay.readout: GI50
assay.value: < 1000 nM

GI50 for CN(C)C(=O)C(O)c1cncc(-c2cnc3[nH]cc(-c4cccc(N(C)C)c4)c3c2)c1 (stereo not drawn) ?
< 1000 nM

// query GI50 value for entry CCc1ccccc1-c1c[nH]c2ncc(-c3cncc(C(O)C(=O)N(C)C)c3)cc12 (stereo not drawn)
< 1000 nM

Fill in the blank: the reported GI50 of COc1ccccc1-c1n[nH]c2ncc(-c3cccc([C@H](O)[C@@H](O)C(C)C)c3)cc12 is ____.
< 1000 nM

What value of GI50 has been reported for the following compound? CN(C)C(=O)C(O)c1cncc(-c2cnc3[nH]cc(-c4ccnn4C)c3c2)c1 (stereo not drawn) [drawing 465]
> 1000 nM

---

# target.or.test.system: unphosphorylated T315I Abl kinase domain (Mus musculus, UniProt P00520, T315I)
# Construct: purified and unphosphorylated T315I Abl kinase domain
# Sequence (P00520 242-493 T315I limits assumed): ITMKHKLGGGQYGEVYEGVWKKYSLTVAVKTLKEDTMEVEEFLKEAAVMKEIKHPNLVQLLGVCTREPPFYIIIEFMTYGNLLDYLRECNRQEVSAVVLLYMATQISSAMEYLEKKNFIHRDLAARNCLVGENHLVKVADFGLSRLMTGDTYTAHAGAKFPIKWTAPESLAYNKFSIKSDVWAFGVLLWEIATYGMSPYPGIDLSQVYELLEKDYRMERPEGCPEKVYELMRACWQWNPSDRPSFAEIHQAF
# experimental.protocol: c-Abl T315I 0P bioassay (pyruvate kinase/lactate dehydrogenase coupled enzyme assay)
# applied.conditions: zero phosphorylation state (0P), 10 μM ATP, read-out: AbI T315I 0P IC50
pIC50: −log10 of the molar value.
Measured pIC50 by item

Reported pIC50, compound CC(=O)Nc1ccc(-c2c[nH]c3ncc(-c4cncc(C(O)C(=O)N(C)C)c4)cc23)cc1 (centres unmarked) : ____
> 7.30

For COc1ccccc1-c1c[nH]c2ncc(-c3cccc(C(O)C(=O)N(C)CCN(C)C)c3)cc12 (centres unmarked) , what is its reported pIC50?
> 7.30

Which pIC50 is reported for this compound? COc1ccccc1-c1n[nH]c2ncc(-c3cccc(C(O)C(=O)N(C)C4CCOCC4)c3)cc12 (centres unmarked)
> 7.30

Param item = COc1ccccc1-c1c[nH]c2ncc(-c3cccc(C(O)c4ccccn4)c3)cc12 (centres unmarked) ; retrieve measured pIC50.
> 7.30

Item COc1ccccc1-c1n[nH]c2ncc(-c3cccc(C(O)CN)c3)cc12 (centres unmarked) has what recorded pIC50?
> 7.30

Using the record for COc1ccccc1-c1c[nH]c2ncc(-c3cccc(C(N)CC(=O)N(C)CCN(C)C)c3)cc12 (centres unmarked) , report its pIC50.
> 7.30

Param item = CN(C)C(=O)C(O)c1cncc(-c2cnc3[nH]cc(-c4cccc(S(C)(=O)=O)c4)c3c2)c1 (centres unmarked) ; retrieve measured pIC50.
< 6.30

If you can, please state the reported pIC50 value of CN(C)C(=O)C(O)c1cncc(-c2cnc3[nH]cc(-c4cccc(N(C)C)c4)c3c2)c1 (centres unmarked) .
> 7.30

Quick one: pIC50 for COc1ccccc1-c1n[nH]c2ncc(-c3cccc(C(N)C(=O)N(C)C)c3)cc12 (centres unmarked) ?
> 7.30

// pIC50 lookup, key: CN(C)C(=O)C(O)c1cncc(-c2cnc3[nH]cc(-c4ccc(Cl)c(Cl)c4)c3c2)c1 (centres unmarked)
> 7.30

// pIC50 lookup, key: COc1ccccc1-c1n[nH]c2ncc(-c3cccc(C(O)c4ncccc4F)c3)cc12 (centres unmarked)
> 7.30

Could you tell me which pIC50 is on file for CCc1ccccc1-c1c[nH]c2ncc(-c3cncc(C(O)C(=O)N(C)C)c3)cc12 (centres unmarked) ?
> 7.30

Data request, read-out pIC50, for COc1ccccc1-c1c[nH]c2ncc(-c3cccc(C(F)C(=O)N(C)C)c3)cc12 (centres unmarked)
> 7.30

Data request, read-out pIC50, for COc1ccccc1-c1n[nH]c2ncc(-c3cccc(C(O)c4ncco4)c3)cc12 (centres unmarked)
> 7.30

I have this compound here, COc1ccccc1-c1c[nH]c2ncc(-c3cccc(C(O)C(=O)N(C)C)n3)cc12 (centres unmarked) , and I need its recorded pIC50.
> 7.30

---

# target.or.test.system: Ba/F3 cells, ABL1 WT (Homo sapiens, UniProt P00519)
# experimental.protocol: 96-well XTT cell survival assay, Ba/F3 ABL1 WT
# Assay type: cell-based
# applied.conditions: 72 hours, read-out: ABL1 WT XTT [Ba/F3] IC50
# Method: MV4-11 and THP cells were maintained in Iscove's Modified Dulbecco's Medium supplemented with 10% fetal bovine serum (FBS) and penicillin/streptomycin, Ba/F3 cells were maintained in RPMI 1640 supplemented with 10% FBS, penicillin/streptomycin and 5 ng/ml recombinant mouse IL-3. Compounds were tested in the following assays in duplicate. […]
assay.readout: GI50

molecule: COc1ccccc1-c1c[nH]c2ncc(-c3cncc(C(O)CC(C)C)c3)cc12 (centres unmarked)
GI50: < 1 µM

molecule: CN(C)C(=O)C(O)c1cncc(-c2cnc3[nH]cc(-c4ccccc4OC(F)(F)F)c3c2)c1 (centres unmarked)
GI50: < 1 µM

molecule: CN(C)C(=O)C(O)c1cncc(-c2cnc3[nH]cc(-c4cccnc4)c3c2)c1 (centres unmarked)
GI50: > 1 µM

molecule: COc1ccccc1-c1c[nH]c2ncc(-c3cnc(N)c(C(O)C(=O)N(C)C)c3)cc12 (centres unmarked)
GI50: < 1 µM

Would you kindly look at the next entry?
Which GI50 is reported with Ba/F3 cells, ABL1 WT (Homo sapiens, UniProt P00519) for this entry: COc1ccccc1-c1c[nH]c2ncc(-c3cccc(C(O)C(=O)N(C)C4CCOCC4)c3)cc12 (centres unmarked) ?
< 1 µM

---

# target.or.test.system: Ba/F3 cells, ABL1 T315I (Homo sapiens, UniProt P00519, T315I, cells depend on it)
# experimental.protocol: 96-well XTT cell survival assay, Ba/F3 ABL1 T315I
# Format: cell-based
# applied.conditions: 72 hours, read-out: ABL1 T315I XTT [Ba/F3] IC50
Entries and their GI50

// solved cases for GI50 follow
compound: COc1ccccc1-c1n[nH]c2ncc(-c3cccc(C(O)C(=O)N(C)C4CCN(C)C4)c3)cc12 (centres unmarked)
assay.value: < 1000 nM

compound: COc1ccccc1-c1n[nH]c2ncc(-c3cccc(C(C)C(=O)N(C)CCN(C)C)c3)cc12 (centres unmarked)
assay.value: > 1000 nM

compound: CN(C)C(=O)C(O)c1cncc(-c2cnc3[nH]cc(-c4ccc(C#N)cc4)c3c2)c1 (centres unmarked)
assay.value: > 1000 nM

compound: COc1ccccc1-c1c[nH]c2ncc(-c3cncc(C(O)C4CC4)c3)cc12 (centres unmarked)
assay.value: < 1000 nM

compound: CN(C)C(=O)C(O)c1cncc(-c2cnc3[nH]cc(-c4ccc(N(C)C)cc4)c3c2)c1 (centres unmarked)
assay.value: > 1000 nM

Now turn to the next compound.
Given the entry COc1ccccc1-c1n[nH]c2ncc(-c3cccc(C(C)C(=O)N(C)C)c3)cc12 (centres unmarked) , report its measured GI50.
> 1000 nM

---

Listing: GI50 of selected compounds
# target.or.test.system: Ba/F3 cells, ABL1 WT (Homo sapiens, UniProt P00519)
# experimental.protocol: 96-well XTT cell survival assay, Ba/F3 ABL1 WT
# Type: cell-based
# applied.conditions: 72 hours, read-out: ABL1 WT XTT [Ba/F3] IC50

Request body: readout GI50, system Ba/F3 cells, ABL1 WT (Homo sapiens, UniProt P00519), query COc1ccccc1-c1c[nH]c2ncc(-c3cncc(C(O)C(=O)N(C)Cc4ccnn4C)c3)cc12 (stereo not drawn) . Return the value.
< 1000 nM

Lab note: need GI50 for COc1ccccc1-c1n[nH]c2ncc(-c3cccc(C(N)C(=O)N4CC(O)C4)c3)cc12 (stereo not drawn) on Ba/F3 cells, ABL1 WT (Homo sapiens, UniProt P00519), anyone have it?
> 1000 nM

Give the reported GI50 for COc1ccccc1-c1c[nH]c2ncc(-c3cccc(C(O)C(=O)N(C)CC4CCN(C)CC4)c3)cc12 (stereo not drawn) (system: Ba/F3 cells, ABL1 WT (Homo sapiens, UniProt P00519)).
< 1000 nM

Please tell me: GI50 of COc1ccccc1-c1c[nH]c2ncc(-c3ccnc(C(O)C(=O)N(C)C)n3)cc12 (stereo not drawn) , system Ba/F3 cells, ABL1 WT (Homo sapiens, UniProt P00519)?
> 1000 nM

Missing value: GI50, Ba/F3 cells, ABL1 WT (Homo sapiens, UniProt P00519), entry COc1ccccc1-c1c[nH]c2ncc(-c3cccc(C(O)C(=O)N(C)C)c3)cc12 (stereo not drawn) . Fill in?
< 1000 nM

Which measured GI50 belongs to COc1ccccc1-c1n[nH]c2ncc(-c3cccc(C(O)C(=O)N(C4CC4)C4CCN(C)CC4)c3)cc12 (stereo not drawn) , tested on Ba/F3 cells, ABL1 WT (Homo sapiens, UniProt P00519)?
< 1000 nM

Item: COc1ccccc1-c1c[nH]c2ncc(-c3cncc(C(O)C(=O)N(C)C)c3)cc12 (stereo not drawn) Test system: Ba/F3 cells, ABL1 WT (Homo sapiens, UniProt P00519) Read-out: GI50 Value: ?
< 1000 nM

Checklist item: GI50 tested on Ba/F3 cells, ABL1 WT (Homo sapiens, UniProt P00519), entry COc1ccccc1-c1c[nH]c2ncc(-c3cncc([C@H](O)C(=O)N(C)C)c3)cc12 , value?
< 1000 nM

Form field - read-out: GI50; system: Ba/F3 cells, ABL1 WT (Homo sapiens, UniProt P00519); submitted item: COc1ccccc1-c1n[nH]c2ncc(-c3cccc(C(OC)C(=O)N(C)CCN(C)C)c3)cc12 (stereo not drawn)
< 1000 nM

Which measured GI50 belongs to COc1ccccc1-c1n[nH]c2ncc(-c3cccc(C(C)C(=O)N4CCC(N(C)C)C4)c3)cc12 (stereo not drawn) , tested on Ba/F3 cells, ABL1 WT (Homo sapiens, UniProt P00519)?
< 1000 nM

Please tell me: GI50 of COc1ccccc1-c1c[nH]c2ncc(-c3cncc(C(O)C(N)=O)c3)cc12 (stereo not drawn) , system Ba/F3 cells, ABL1 WT (Homo sapiens, UniProt P00519)?
> 1000 nM

Field: GI50 (Ba/F3 cells, ABL1 WT (Homo sapiens, UniProt P00519)). Entry: COc1ccccc1-c1n[nH]c2ncc(-c3cccc([C@H]4OCO[C@@H]4C(C)C)c3)cc12
> 1000 nM

Notebook entry, Ba/F3 cells, ABL1 WT (Homo sapiens, UniProt P00519) assay: GI50 of CN(C)C(=O)C(O)c1cncc(-c2cnc3[nH]cc(-c4ccc(Cl)cc4)c3c2)c1 (stereo not drawn) = ?
< 1000 nM

Query the reported GI50 for Ba/F3 cells, ABL1 WT (Homo sapiens, UniProt P00519); item: COc1ccccc1-c1c[nH]c2ncc(-c3cccc(C(O)C(=O)N(C)CC4CCCO4)c3)cc12 (stereo not drawn)
< 1000 nM

Kindly state the measured GI50 obtained for COc1ccccc1-c1c[nH]c2ncc(-c3cccc(C(O)CN)c3)cc12 (stereo not drawn) with Ba/F3 cells, ABL1 WT (Homo sapiens, UniProt P00519).
> 1000 nM

What value of GI50 on Ba/F3 cells, ABL1 WT (Homo sapiens, UniProt P00519) does COc1ccccc1-c1n[nH]c2ncc(-c3cccc(C(O)C(=O)N4CCC[C@@H]4CO)c3)cc12 (stereo partly drawn) have?
< 1000 nM

Notebook: pull reported GI50 for Ba/F3 cells, ABL1 WT (Homo sapiens, UniProt P00519), entry COc1ccccc1-c1n[nH]c2ncc(-c3cccc(C(C)C(=O)N(C)C)c3)cc12 (stereo not drawn)
> 1000 nM

Request - read-out GI50 | tested on Ba/F3 cells, ABL1 WT (Homo sapiens, UniProt P00519) | compound CNC(C(=O)N(C)CCN(C)C)c1cccc(-c2cnc3[nH]nc(-c4ccccc4OC)c3c2)c1 (stereo not drawn)
> 1000 nM
